settings: in toluene, 300.65 K
Metric Name: solubility (mole fraction)
Answer as a number with no unit attached.

[Q] Form field: reported solubility (mole fraction) of CC1=NN(c2ccc(C)cc2)C(=O)C1
[A] 0.023

----------
conditions: in 1,4-dioxane, 285.65 K
Metric Name: solubility (mole fraction)
Answer as a number with no unit attached.

[Q] Form field: reported solubility (mole fraction) of CC1=NN(c2ccc(C)cc2)C(=O)C1
[A] 0.0367

----------
conditions: in ethanol, 295.65 K
Metric Name: solubility (mole fraction)
Answer as a number with no unit attached.

[Q] Form field: reported solubility (mole fraction) of CC1=NN(c2ccc(C)cc2)C(=O)C1
[A] 0.027
